targetOrSystem: T1, human MSLN-R1-his protein (human, UniProt Q13421 296-390)
T1 construct: Region 1 of human mesothelin, made in HEK293E cells, His-tagged; also called human MSLN-R1 protein; hMSLN-R1-his; not shown: His tag
T1 chain: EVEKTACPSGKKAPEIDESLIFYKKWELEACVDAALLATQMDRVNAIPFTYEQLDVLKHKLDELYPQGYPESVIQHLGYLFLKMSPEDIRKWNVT
procedureText: ELISA on coated MSLN-R1; antibody 0.0001 nM
readoutType: OD450 (OD450)
Report as a plain number; the unit OD450 is understood.

>>> reportedmeasurement("S009-F8-7.5 (antibody, human IgG1, kappa, V domains shown) VH: DVQLQESGPGLVKPSQSLSLTCSVTGYSITSGYYWNWIRQFPGNKLEWMAYIRYDGSNNYNPSLKNRISIIRDTSKNQFFLRLNSVTTEDTATYYCAKSYYGMDDWGQGISVTVSS VL: DIQMTQSPASLSASVGETVTITCRTSGDIHNYLAWYQQKQGKSPQLLVYKAKTLENGVPSRFTGSGSGTQFSLKIDSLQPEDFGTYYCQHFWTTPYTFGGGTKLEIKR")
0.04

Continue with the binder presented below.
query: Endpoint output: OD450 of S009-F8-31.22 (antibody, human IgG1, kappa, V domains shown) VH: EVQLVESGGDLVKPGGSLKLSCAASGFTFSTYGMSWVRQTPDKRLEWVATISSGGSYTYYPDSLKGRFTISRDNAKNTLYLQMSSLKSEDTAMYYCARHEGYYYGKDYWGQGTTLTVSS VL: DIVLTQSPATLSVTPGDSVSLSCRASHSISNNLHWYQQKSHESPRLLIKYASQSISGIPSKFSGSGSGTDFTLSINSVETEDFGMYFCQQTNSWPLTFGAGTKLELKR . Value?
result: 0.08

Provenance of the data: patent US20250250357A1
